Catalogue of IC50 values
target: HLA-DR DRB1*09:01 (Homo sapiens, UniProt P01903+P01911, A100R/A103E/D57H/D86V/F55Y/F60I/F76Y/I96F/K127E/L162R/M171V/P40D/Q125H/Q99R/R33Q/R42F/S133A/S66N/T210M/V115G/W38K/Y107V/Y59G/Y89S); assay: biochemical; type: binding
Ends that are not written are not given here.
Unit µM implied. Number only.

substance="VVIQDNSDIKVVPRRKAKII-NH2 [integrase(249-268)]" unit_name=µM quantitative_readout=7.04
substance="VGSLQYLALTALITPKK-NH2 [vif(142-158)]" unit_name=µM quantitative_readout=0.064

Please find the next substance below.
Enquiry: Provide measured IC50 value, entry: EAVRHFPRPWLHGL-NH2 [vpr(29-42)]
Return: 1.27

====

molecular target: HLA-DP DPA1*01:03/DPB1*03:01 (Homo sapiens, UniProt P04440+P20036, A65V/A84D/A85E/E86D/F38Y/G113D/G114E/G40L/I94L/L37V/M105V/M116V/P115A/R125K/T199I); test: biochemical; format: binding; settings: read-out: Binding capacity/IC50 (nM) DPA1*01:03 DPB1*03:01
Ends that are not written are not given here.
Below, each entry is listed with its recorded log10 of IC50.
log10 IC50, nM

For orientation, consider the following solved cases.
substance="NYPIVQNLQGQMVHQAISPR-NH2 [p17(131-132)/p24(1-18)]" quantitative_readout=2.54
substance="LNKIVRMYSPVSILDI-NH2 [p24(138-153)]" quantitative_readout=1.20

Enquiry: Assign log10 of IC50 to the following record: IRYPLTFGWCFKLVPVDPREVEEA-NH2 [nef(133-156)]
Return: 3.73

Enquiry: // Input: DEELLKAVRIIKILYQSNP-NH2 [rev(9-27)] . Output its log10 of IC50 only.
Return: 2.67

Enquiry: Quick one: give measured log10 of IC50 for IVALIIAIVVWTIV-NH2 [vpu(13-26)]
Return: 3.41

Enquiry: Please report log10 of IC50 for the following substance: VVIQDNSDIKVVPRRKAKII-NH2 [integrase(249-268)]
Return: 2.54

====

molecular target: HLA-DR DRB1*07:01 (Homo sapiens, UniProt P01903+P01911, A100R/A102G/A103Q/D57E/D86V/E43K/F76Y/K127E/L162R/M171V/P40G/Q125H/Q99D/R33Q/R42Y/R54Q/S133A/S66F/T210M/V115G/Y107V/Y59L/Y89S); experiment: biochemical; type: binding; settings: read-out: Binding capacity/IC50 (nM) DRB1*07:01
measured_property: IC50 (nM)
Return type: number; implicit unit nM.

Enquiry: Specify IC50 for CC[C@H](C)[C@H](NC(=O)[C@@H](NC(=O)[C@H](CCCCN)NC(=O)[C@@H](NC(=O)[C@@H]1CCCN1C(=O)[C@H](Cc1c[nH]c2ccccc12)NC(=O)[C@H](CCCNC(=N)N)NC(=O)CNC(=O)[C@H](C)NC(=O)[C@H](CC(C)C)NC(=O)[C@H](CCCCN)NC(=O)[C@H](CC(C)C)NC(=O)[C@@H](NC(=O)[C@H](Cc1ccccc1)NC(=O)[C@H](Cc1ccc(O)cc1)NC(=O)[C@H](C)NC(=O)[C@@H](NC(=O)[C@@H](N)CCC(=O)O)[C@@H](C)O)[C@@H](C)CC)C(C)C)C(C)C)C(N)=O [integrase(96-113)] and stop.
Return: 1380
